system: A-427 human lung carcinoma; assay: CellTiter-Glo cancer cell line proliferation assay, A-427; assay type: cell-based; conditions: Homo sapiens, A-427, 24 hr, read-out: A427 at 24 hrs, IC50
pIC50: −log10 of the molar value. Where a name gives a salt, the structure may show the parent alone.
Listing of entries alongside the reported pIC50.

1) C#Cc1c(F)ccc2cc(O)cc(-c3ncc4c(N5CC6CCC(C5)N6C(=O)CC)nc(OCC5(CN6CCN(CC7CCN(c8ccc9c(c8)CN(C8CCC(=O)NC8=O)C9=O)CC7)CC6)CC5)nc4c3F)c12 (stereo not shown): < 6.00
2) C#Cc1cccc2cccc(-c3ncc4c(N5CC6CCC(C5)N6)nc(OC[C@@H]5CC[C@H](CN6CCN(CC7CCN(c8cccc9c8C(=O)N(C8CCC(=O)NC8=O)C9=O)CC7)CC6)N5C)nc4c3F)c12 (stereo partly shown): < 6.00
3) CN1C[C@@H](N2CCC(C(=O)N3CCN(c4ccc5c(c4)C(=O)N(C4CCC(=O)NC4=O)C5=O)CC3)CC2)C[C@H]1COc1nc(N2CC3CCC(C2)N3)c2cnc(-c3cccc4cccc(Cl)c34)c(F)c2n1 (stereo partly shown) [Compound 9, hydrochloride]: < 6.00

Problem: I would be grateful if you could share the reported pIC50 for `C#Cc1cccc2cc(O)cc(-c3ncc4c(N5CC6CCC(C5)N6)nc(OCC5(CN6CCN(CC7CCN(CCC(=O)N[C@@H](C(=O)N8C[C@@H](O)C[C@@H]8C(=O)NCc8ccc(-c9scnc9C)cc8)C(C)(C)C)CC7)CC6)CC5)nc4c3F)c12` .
Solution: < 6.00

* * *

system: A-427 human lung carcinoma; test: CellTiter-Glo cancer cell line proliferation assay, A-427; format: cell-based; settings: Homo sapiens, A-427, 24 hr, read-out: A427 at 24 hrs, IC50
Counter-ions that a name gives are not always drawn.
Assay Metric: IC50

Problem: I would be grateful if you could share the reported IC50 for O=C1CCC(N2C(=O)c3ccc(N4CCN(C(=O)C5CCN(CC6(COc7nc(N8CC9CCC(C8)N9)c8cnc(-c9cc(O)cc%10ccccc9%10)c(F)c8n7)CC6)CC5)CC4)cc3C2=O)C(=O)N1 (stereo not drawn) [Compound 76] .
Solution: > 1000 nM

Problem: Next up: C#Cc1cccc2cccc(-c3ncc4c(N5CC6CCC(C5)N6)nc(OC[C@@H]5C[C@H](N6CCN(CC7CCN(c8cccc9c8C(=O)N(C8CCC(=O)NC8=O)C9=O)CC7)CC6)CN5C)nc4c3F)c12 (stereo partly drawn) [Compound 6, hydrochloride]
Solution: > 1000 nM

Problem: Next up: O=C1CCC(N2Cc3cc(N4CCC(CN5CCN(CC6(COc7nc(N8CC9CCC(C8)N9)c8cnc(-c9cc(O)cc%10ccccc9%10)c(F)c8n7)CC6)CC5)CC4)ccc3C2=O)C(=O)N1 (stereo not drawn) [Compound 52]
Solution: 100 to 1000 nM

Problem: Next up: CN1C[C@@H](N2CCC(C(=O)NCCOCCOc3ccc4c(c3)C(=O)N(C3CCC(=O)NC3=O)C4=O)CC2)C[C@H]1COc1nc(N2CC3CCC(C2)N3)c2cnc(-c3cccc4cccc(Cl)c34)c(F)c2n1 (stereo partly drawn) [Compound 11, formate]
Solution: > 1000 nM

Problem: Next up: O=C1CCC(N2C(=O)c3ccc(CN4CCN([C@H]5CN6CCC[C@@]6(COc6nc(N7CC8CCC(C7)N8)c7cnc(-c8cc(O)cc9ccccc89)c(F)c7n6)C5)CC4)cc3C2=O)C(=O)N1 (stereo partly drawn) [Compound 50]
Solution: > 1000 nM

* * *

Listing of entries alongside the reported GI50.
target: BA/F3-KRAS(G12D) murine pro-B cell line stably expressing KRAS(G12D) (Homo sapiens, UniProt P01116, G12D, cells depend on it); experiment: CellTiter-Glo cancer cell line proliferation assay, BA/F3-KRAS(G12D); type: cell-based; details: 24 hr, read-out: BAF3 at 24 hrs, IC50
Sequence (P01116 whole entry G12D): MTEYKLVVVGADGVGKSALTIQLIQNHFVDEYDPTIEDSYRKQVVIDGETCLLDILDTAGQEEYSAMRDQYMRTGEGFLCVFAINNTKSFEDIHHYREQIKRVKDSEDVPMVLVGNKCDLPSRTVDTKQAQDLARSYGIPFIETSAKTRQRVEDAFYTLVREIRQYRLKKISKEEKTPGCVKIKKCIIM
Counter-ions that a name gives are not always drawn.

Problem: I would be grateful if you could share the reported GI50 for Cc1ncsc1-c1ccc(CNC(=O)C2CC(O)CN2C(=O)C(NC(=O)C2CCN([C@H]3C[C@@H](COc4nc(N5CC6CCC(C5)N6)c5cnc(-c6cccc7cccc(Cl)c67)cc5n4)N(C)C3)CC2)C(C)(C)C)cc1 (stereo in doubt) .
Solution: > 1 µM

Problem: Next up: CN1C[C@@H](N2CCC(C(=O)NCCOc3ccc4c(c3)C(=O)N(C3CCC(=O)NC3=O)C4=O)CC2)C[C@H]1COc1nc(N2CC3CCC(C2)N3)c2cnc(-c3cccc4cccc(Cl)c34)c(F)c2n1 (some centres unmarked) [Compound 12, hydrochloride]
Solution: > 1 µM

* * *

Listing of entries alongside the reported pIC50.
target: KRAS(G12D)/SOS1 (Homo sapiens, UniProt P01116, G12D); experiment: KRAS(G12D)/SOS1 homogeneous time-resolved fluorescence (HTRF) assay; conditions: absence of GTP, 4° C. for 3 hr
Sequence (P01116 1-188 isoform P01116-2 G12D): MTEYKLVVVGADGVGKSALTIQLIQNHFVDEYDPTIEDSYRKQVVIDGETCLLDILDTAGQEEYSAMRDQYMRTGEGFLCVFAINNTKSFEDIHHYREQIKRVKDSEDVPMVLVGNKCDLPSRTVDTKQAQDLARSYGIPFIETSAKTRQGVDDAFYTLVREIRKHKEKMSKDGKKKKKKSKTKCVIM
pIC50: −log10 of the molar value.

Problem: I would be grateful if you could share the reported pIC50 for C=CC(=O)N1CCN(c2nc(OCC3(CN4CCN(CC5CCN(c6ccc7c(c6)CN(C6CCC(=O)NC6=O)C7=O)CC5)CC4)CC3)nc3c2CCN(c2cccc4cccc(Cl)c24)C3)C[C@@H]1CC#N (stereo partly drawn) .
Solution: < 6.00

Problem: Next up: O=C1CCC(N2Cc3cc(N4CCN(CC5(COc6nc(N7CC8CCC(C7)N8)c7cnc(-c8cccc9cccc(Cl)c89)c(F)c7n6)CC5)CC4)ccc3C2=O)C(=O)N1 (stereo not drawn)
Solution: > 7.00

Problem: Next up: C#Cc1c(F)ccc2cc(O)cc(-c3ncc4c(N5CC6CCC(C5)N6)nc(OCC5(CN6CCC(CN7CCC(c8ccc(NC9CCC(=O)NC9=O)cc8)CC7)CC6)CC5)nc4c3F)c12 (stereo not drawn)
Solution: > 7.00

* * *

molecular target: BA/F3-KRAS(G12D) murine pro-B cell line stably expressing KRAS(G12D) (Homo sapiens, UniProt P01116, G12D, cells depend on it); test: CellTiter-Glo cancer cell line proliferation assay, BA/F3-KRAS(G12D); type: cell-based; conditions: 24 hr, read-out: BAF3 at 24 hrs, IC50
Counter-ions that a name gives are not always drawn.
Listing of entries alongside the reported GI50.

Known GI50 results, listed for orientation:
1. C#Cc1cccc2cccc(-c3ncc4c(N5CC6CCC(C5)N6)nc(OC[C@@H]5CC[C@H](CN6CCN(CC7CCN(c8cccc9c8C(=O)N(C8CCC(=O)NC8=O)C9=O)CC7)CC6)N5C)nc4c3F)c12 (stereo partly shown): 0.1 to 1 µM
2. CN1C[C@@H](N2CCC(C(=O)NCCOc3ccc4c(c3)C(=O)N(C3CCC(=O)NC3=O)C4=O)CC2)C[C@H]1COc1nc(N2CC3CCC(C2)N3)c2cnc(-c3cccc4ccccc34)c(F)c2n1 (stereo partly shown) [Compound 22, formate]: > 1 µM
3. CN1C[C@@H](N2CCC(C(=O)N3CCN(c4ccc5c(c4)C(=O)N(C4CCC(=O)NC4=O)C5=O)CC3)CC2)C[C@H]1COc1nc(N2CC3CCC(C2)N3)c2cnc(-c3cccc4cccc(Cl)c34)c(F)c2n1 (stereo partly shown) [Compound 9, hydrochloride]: > 1 µM

# context switch: different compound, same GI50
Problem: I would be grateful if you could share the reported GI50 for C#Cc1cccc2cccc(-c3ncc4c(N5CC6CCC(C5)N6)nc(OCCN5CCN(CC6CCN(c7ccc8c(c7)C(=O)N(C7CCC(=O)NC7=O)C8=O)CC6)CC5)nc4c3F)c12 (stereo not shown) [Compound 1, hydrochloride] .
Solution: > 1 µM

* * *

system: A-427 human lung carcinoma; assay: CellTiter-Glo cancer cell line proliferation assay, A-427; format: cell-based; details: Homo sapiens, A-427, 24 hr, read-out: A427 at 24 hrs, IC50
pIC50: −log10 of the molar value. Where a name gives a salt, the structure may show the parent alone.
Assay Metric: pIC50

Known pIC50 results, listed for orientation:
1. C#Cc1c(F)ccc2cc(O)cc(-c3ncc4c(N5CC6CCC(C5)N6)nc(OCC5(CN6CCC(CN7CCN(c8ccc9c(c8)CN(C8CCC(=O)NC8=O)C9=O)CC7)CC6)CC5)nc4c3F)c12 (stereo not drawn) [Compound 99]: < 6.00
2. CN1[C@@H](COc2nc(N3CC4CCC(C3)N4)c3cnc(-c4cc(O)cc5ccccc45)c(F)c3n2)CC[C@H]1CN1CCN(CC2CCN(c3ccc4c(c3)C(=O)N(C3CCC(=O)NC3=O)C4=O)CC2)CC1 (stereo partly drawn) [Compound 60]: < 6.00
3. C#Cc1cccc2cc(O)cc(-c3ncc4c(N5CC6CCC(C5)N6)nc(OCC5(CN6CCN(CC7CCN(c8ccc9c(c8)CN(C8CCC(=O)NC8=O)C9=O)CC7)[C@@H](C7CC7)C6)CC5)nc4c3F)c12 (stereo partly drawn) [Compound 96]: 6.00 to 7.00

Problem: Could you share what pIC50 was measured for C#Cc1cccc2cccc(-c3ncc4c(N5CC6CCC(C5)N6)nc(OC[C@@H]5CC[C@H](CN6CCN(C(=O)C7CCN(c8ccc9c(c8)C(=O)N(C8CCC(=O)NC8=O)C9=O)CC7)CC6)N5C)nc4c3F)c12 (stereo partly drawn) [Compound 16, hydrochloride] , tested on A-427 human lung carcinoma?
Solution: < 6.00

Problem: Next up: C#Cc1cccc2cccc(-c3ncc4c(N5CC6CCC(C5)N6)nc(OC[C@H]5CC[C@@H](CN6CCN(CCC7CCN(c8ccc9c(c8)C(=O)N(C8CCC(=O)NC8=O)C9=O)CC7)CC6)N5C)nc4c3F)c12 (stereo partly drawn) [Compound 62]
Solution: 6.00 to 7.00

Problem: Next up: C#Cc1cccc2cccc(-c3ncc4c(N5CC6CCC(C5)N6)nc(OCCN5CCN(C(=O)C6CCN(c7ccc8c(c7)C(=O)N(C7CCC(=O)NC7=O)C8=O)CC6)CC5)nc4c3F)c12 (stereo not drawn) [Compound 4, formate]
Solution: < 6.00

Problem: Next up: COc1nc(-c2cc(O)cc3ccccc23)c(F)c2nc(OCC3(CN4CCN(CC5CCN(c6ccc7c(c6)C(=O)N(C6CCC(=O)NC6=O)C7=O)CC5)CC4)CC3)nc(N3CC4CCC(C3)N4)c12 (stereo not drawn) [Compound 66]
Solution: 6.00 to 7.00

Problem: Next up: C#Cc1cccc2cccc(-c3ncc4c(N5CC6CCC(C5)N6)nc(OCC5(CN6CCN(CC7CCN(c8ccc9c(c8)C(=O)N(C8CCC(=O)NC8=O)C9=O)CC7)CC6)CC5)nc4c3F)c12 (stereo not drawn) [Compound 48]
Solution: < 6.00

Problem: Next up: C#Cc1cccc2cc(O)cc(-c3nc(OC)c4c(N5CC6CCC(C5)N6)nc(OCC5(CN6CCN(CC7CCN(c8ccc9c(c8)CN(C8CCC(=O)NC8=O)C9=O)CC7)CC6)CC5)nc4c3F)c12 (stereo not drawn) [Compound 78]
Solution: > 7.00
